Catalogue of viability change readings, one per entry.
test: Nrf2 qHTS screen for inhibitors: Validation (AID 493153); details: A549 ARE-Fluc reporter, 18-24 h; measured here: cytotoxicity max response
Results filed as inconclusive are left out.
measurement_type: viability change (%)

                           structure_string  measurement_type  meas_value
0    CC(C)N(CCC(=O)c1ccc2ccccc2c1)Cc1ccccc1  viability change      -0.356
1  COc1ccccc1N1CCN(CCN2C(=O)CC3(CCCC3)CC2=O)CC1  viability change        9.42
2  O=[N+]([O-])c1ccc(-c2nc(-c3ccc(F)cc3)c(-c3ccncc3)[nH]2)cc1  viability change       -1.66
3          Cn1cnc2c(NCc3ccccc3)nc(NCCO)nc21  viability change        8.36
4      CCN(CC)CCNC(=O)c1ccc(NS(C)(=O)=O)cc1  viability change        5.75
5  COC(=O)C1=CO[C@@H](O)[C@@H]2C(CO)=CC[C@H]12  viability change       -6.84
6                        NC(N)=NCCCCN=C(N)N  viability change        2.98
7  Cc1nn(-c2ccccc2)c(C)c1/C=N/N1CCN(Cc2ccccc2)CC1  viability change       -3.49
